# key: entry, value: Potency
# Target or test system: DNA dC->dU-editing enzyme APOBEC-3F (Homo sapiens)
# Assay overview: qHTS for inhibitors of Vif-A3F interactions: Cherry picks; note: potency is the fitted concentration of half-maximal effect; nearly all actives have a fitted effect of over 70% in size
# Condition description: HeLa A3F-eYFP + Vif (tagged APOBEC3F with the HIV-1 protein that degrades it), eYFP fluorescence, 24 h
Screen size: about 2,100 compounds; about 590 (28%) were called active. Inconclusive results (about 42%) are left out. The list shows a part of the results.
Measured property: Potency

>>> df
                                    molecule   recorded_result
 0     C(=C\c1c[nH]c2ccccc12)/c1nccc2ccccc12  10.3 µM (active)
 1  C[C@]12CCC[C@H](O1)c1c(cc3c(c1O)C(=O)c1c(O)cc(O)cc1C3=O)O2  14.6 µM (active)
 2                     O=c1[nH]cnc2n[nH]nc12  2.31 µM (active)
 3  CCc1ccc(C2=NN(S(C)(=O)=O)C(c3cccs3)C2)cc1 (configuration not stated)  15.8 µM (active)
 4  CCC(C)n1c(NC(=O)c2ccccc2)c(C#N)c2nc3ccccc3nc21 (configuration not stated)  16.4 µM (active)
 5     O=C(Cc1nc2ccccc2[nH]c1=O)c1ccc(Cl)cc1  18.4 µM (active)
 6    Cc1cc(/C=C2\NC(=S)N(C)C2=O)ccc1N1CCCC1  12.5 µM (active)
 7  Cc1ccc(NC(=O)C(=Cc2ccc(C(=O)O)cc2)C(=O)Nc2ccc(C)cc2C)c(C)c1  5.59 µM (active)
 8  CCCCCCc1cc2cc(-c3nnc(-c4ccccc4OC)o3)c(=O)oc2cc1O   2.8 µM (active)
 9  COc1cc2c(cc1OC)C1=CC(=O)C(=O)N1C(C)(C)C2    14 µM (active)
10  COc1ccc(/C=c2\s/c(=C/C(=O)c3ccc(C)cc3)[nH]c2=O)c(OC)c1  18.4 µM (active)
11          CC1(C)CCN2CCC(C)(C)c3c(O)ccc1c32    14 µM (active)
12  CC(NC(=O)c1ccc(Nc2nc3ccccc3n3nnnc23)cc1)c1ccccc1 (configuration not stated)  16.4 µM (active)
13  O=C1/C(=C/c2ccc(N3CCCC3)cc2)NC(=S)N1C1CC1  5.17 µM (active)
14         Cc1nc2c3cc(F)ccc3n(Cc3ccccc3)c2s1  4.98 µM (active)
15   Cc1ccc2c(/C=C/c3c[nH]c4ccccc34)ccnc2c1C  14.6 µM (active)
16  N#Cc1cccc(NC(=O)CSc2ccc3c4c(cccc24)C(=O)c2ccccc2-3)c1  2.31 µM (active)
17     CN(C)c1ccc(/C=C/c2ccnc3ccc(I)cc23)cc1   8.2 µM (active)
18  O=C(NCC1CCCO1)c1nn2c(C(F)(F)F)cc(-c3cc(Br)cs3)nc2c1Br (configuration not stated)  11.6 µM (active)
19  CN(C)c1ccc(/C=C2\Oc3ccc(C#Cc4cccc(N)c4)cc3C2=O)cc1  12.5 µM (active)
20  Cc1ccccc1-n1c(/C=C/c2c(C)n(C)c3ccccc23)nc2ccccc2c1=O   8.2 µM (active)
21       C(=Cc1c[nH]c2ccccc12)c1nccc2ccccc12  20.6 µM (active)
